tested on: HeLa Kyoto; experiment: melting temperature (median over replicates), in situ; higher = more thermally stable; details: cell cycle stage: G1/S
parameter: melting temperature
Dear colleague, please send the value followed by its unit.

MSSLSGKVQTVLGLVEPSKLGRTLTHEHLAMTFDCCYCPPPPCQEAISKEPIVMKNLYWIQKNAYSHKENLQLNQETEAIKEELLYFKANGGGALVENTTTGISRDTQTLKRLAEETGVHIISGAGFYVDATHSSETRAMSVEQLTDVLMNEILHGADGTSIKCGIIGEIGCSWPLTESERKVLQATAHAQAQLGCPVIIHPGRSSRAPFQIIRILQEAGADISKTVMSHLDRTILDKKELLEFAQLGCYLEYDLFGTELLHYQLGPDIDMPDDNKRIRRVRLLVEEGCEDRILVAHDIHTKTRLMKYGGHGYSHILTNVVPKMLLRGITENVLDKILIENPKQWLTFK [PTER] | 56.8 °C
MSALLRLLRTGAPAAACLRLGTSAGTGSRRAMALYHTEERGQPCSQNYRLFFKNVTGHYISPFHDIPLKVNSKEENGIPMKKARNDEYENLFNMIVEIPRWTNAKMEIATKEPMNPIKQYVKDGKLRYVANIFPYKGYIWNYGTLPQTWEDPHEKDKSTNCFGDNDPIDVCEIGSKILSCGEVIHVKILGILALIDEGETDWKLIAINANDPEASKFHDIDDVKKFKPGYLEATLNWFRLYKVPDGKPENQFAFNGEFKNKAFALEVIKSTHQCWKALLMKKCNGGAINCTNVQISDSPFRCTQEEARSLVESVSSSPNKESNEEEQVWHFLGK [PPA2] | 54.8 °C
MSVTLHTDVGDIKIEVFCERTPKTCENFLALCASNYYNGCIFHRNIKGFMVQTGDPTGTGRGGNSIWGKKFEDEYSEYLKHNVRGVVSMANNGPNTNGSQFFITYGKQPHLDMKYTVFGKVIDGLETLDELEKLPVNEKTYRPLNDVHIKDITIHANPFAQ [PPIL3] | 48.9 °C
MSAYPKSYNPFDDDGEDEGARPAPWRDARDLPDGPDAPADRQQYLRQEVLRRAEATAASTSRSLALMYESEKVGVASSEELARQRGVLERTEKMVDKMDQDLKISQKHINSIKSVFGGLVNYFKSKPVETPPEQNGTLTSQPNNRLKEAISTSKEQEAKYQASHPNLRKLDDTDPVPRGAGSAMSTDAYPKNPHLRAYHQKIDSNLDELSMGLGRLKDIALGMQTEIEEQDDILDRLTTKVDKLDVNIKSTERKVRQL [SNAP29] | 52.7 °C
MAEYLASIFGTEKDKVNCSFYFKIGACRHGDRCSRLHNKPTFSQTIALLNIYRNPQNSSQSADGLRCAVSDVEMQEHYDEFFEEVFTEMEEKYGEVEEMNVCDNLGDHLVGNVYVKFRREEDAEKAVIDLNNRWFNGQPIHAELSPVTDFREACCRQYEMGECTRGGFCNFMHLKPISRELRRELYGRRRKKHRSRSRSRERRSRSRDRGRGGGGGGGGGGGGRERDRRRSRDRERSGRF [U2AF1] | 46.8 °C

Let us move to another entry and its melting temperature.
-- ask Report melting temperature for MFLTRSEYDRGVNTFSPEGRLFQVEYAIEAIKLGSTAIGIQTSEGVCLAVEKRITSPLMEPSSIEKIVEIDAHIGCAMSGLIADAKTLIDKARVETQNHWFTYNETMTVESVTQAVSNLALQFGEEDADPGAMSRPFGVALLFGGVDEKGPQLFHMDPSGTFVQCDARAIGSASEGAQSSLQEVYHKSMTLKEAIKSSLIILKQVMEEKLNATNIELATVQPGQNFHMFTKEELEEVIKDI [PSMA5] tested on HeLa Kyoto.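 Also: HeLa Kyoto cells synchronized by double thymidine or nocodazole block, proteins quantified by TMT10plex mass spectrometry, three independent biological replicates.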
-- reply 55.4 °C
